These entries and their values trace back to patent US12491170B2.

assay_method_text: Stability in cryopreserved hepatocytes, rat
reported_metric: Trep Concentration (μM) 0 min (µM)
Give just the numeric value; µM need not be written.

Guide cases for Trep Concentration (μM) 0 min, answers given:
{"compound": "CCCCCC(CCC1C(O)CC2Cc3c(cccc3OCC(=O)O)CC21)OCCC (centres unmarked) [XLVI]", "Trep Concentration (μM) 0 min, µM": 0}
{"compound": "CCCCCC(CCC1C(O)CC2Cc3c(cccc3OCC(=O)O)CC21)OC(=O)C12CC3CC(CC(C3)C1)C2 (centres unmarked) [LXIX]", "Trep Concentration (μM) 0 min, µM": 0}
{"compound": "CCCCCC(CCC1C(O)CC2Cc3c(cccc3OCC(=O)O)CC21)OC(=O)c1ccccc1O (centres unmarked) [LXI]", "Trep Concentration (μM) 0 min, µM": 0}
{"compound": "CCCCCC(CCC1C(O)CC2Cc3c(cccc3OCC(=O)O)CC21)OC(=O)C(C)(C)C (centres unmarked) [XLIX]", "Trep Concentration (μM) 0 min, µM": 0}

Req: Find the recorded Trep Concentration (μM) 0 min belonging to CCCCCC(CCC1C(O)CC2Cc3c(cccc3OCC(=O)O)CC21)OC(=O)c1ccc(O)c(O)c1 (centres unmarked) [LXVI] and report it.
Resp: 0

Req: Next compound: CCCCCC(CCC1C(O)CC2Cc3c(cccc3OCC(=O)O)CC21)OC(=O)C(C)C (centres unmarked) [LXVII]
Resp: 0

Req: Queued: CCCCCC(CCC1C(OC(=O)CC)CC2Cc3c(cccc3OCC(=O)O)CC21)OC(=O)CC (centres unmarked) [Prodrug LXX, treprostinil dipropionate]
Resp: 0

Req: Let us now turn to CCCCCC(CCC1C(O)CC2Cc3c(cccc3OCC(=O)O)CC21)OCC (centres unmarked) [XLVII]
Resp: 0

###

assay_method_text: Stability in cryopreserved hepatocytes, dog
measurement_parameters: dog
reported_metric: AUC (µmol·min/L)
Respond with the bare value in µmol·min/L.

Below are worked cases with known answers.
{"compound": "CCCCCC(CCC1C(O)CC2Cc3c(cccc3OCC(=O)O)CC21)OC(C)=O (stereo not shown)", "AUC [µmol·min/L]": 53.99}
{"compound": "CCCCCC(CCC1C(O)CC2Cc3c(cccc3OCC(=O)O)CC21)OC (stereo not shown)", "AUC [µmol·min/L]": 0.00}
{"compound": "CCCCCC(CCC1C(O)CC2Cc3c(cccc3OCC(=O)O)CC21)OC(=O)c1ccc(O)cc1 (stereo not shown)", "AUC [µmol·min/L]": 1.05}
{"compound": "CCCCCC(CCC1C(O)CC2Cc3c(cccc3OCC(=O)O)CC21)OC(=O)CCN (stereo not shown)", "AUC [µmol·min/L]": 16.67}
{"compound": "CCCCCC(CCC1C(O)CC2Cc3c(cccc3OCC(=O)O)CC21)OC(=O)C1CCCN1 (stereo not shown)", "AUC [µmol·min/L]": 29.90}
{"compound": "CCCCCC(CCC1C(O)CC2Cc3c(cccc3OCC(=O)O)CC21)OC(=O)N1CCC(O)CC1 (stereo not shown)", "AUC [µmol·min/L]": 0.32}
{"compound": "CCCCCC(CCC1C(O)CC2Cc3c(cccc3OCC(=O)O)CC21)OCCC (stereo not shown)", "AUC [µmol·min/L]": 0.47}
{"compound": "CCCCCC(CCC1C(O)CC2Cc3c(cccc3OCC(=O)O)CC21)OCC (stereo not shown)", "AUC [µmol·min/L]": 0.27}

// next entry
Req: Returns the measured AUC for the input compound. Input: CCCCCC(CCC1C(O)CC2Cc3c(cccc3OCC(=O)O)CC21)OC(=O)c1cccc(O)c1 (stereo not shown)
Resp: 0.88

###

tested_target: prostaglandin I2 (PGI2) receptor (IP) (Homo sapiens, UniProt P43119)
Sequence (P43119 whole entry): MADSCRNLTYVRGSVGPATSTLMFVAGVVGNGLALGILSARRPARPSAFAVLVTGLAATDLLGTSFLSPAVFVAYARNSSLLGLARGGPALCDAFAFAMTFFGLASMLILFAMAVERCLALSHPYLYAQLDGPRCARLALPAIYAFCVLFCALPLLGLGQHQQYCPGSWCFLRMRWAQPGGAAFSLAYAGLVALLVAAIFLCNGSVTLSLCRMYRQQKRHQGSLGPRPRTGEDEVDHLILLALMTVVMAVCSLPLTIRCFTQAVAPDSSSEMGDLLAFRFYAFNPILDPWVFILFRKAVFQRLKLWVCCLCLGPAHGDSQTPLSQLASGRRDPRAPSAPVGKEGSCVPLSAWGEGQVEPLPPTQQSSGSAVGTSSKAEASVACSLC
assay_method_text: IP receptor cAMP agonist assay (CHO-K1 cells)
Format: cell-based
measurement_parameters: Table 22; relative to treprostinil EC50 values; * partial agonists or ambiguous dose-response curves
Listed molecules paired with reported IP Relative to Tre
Dear colleague, please return just the value in x, with no unit written.

Consider the reported IP Relative to Tre for these molecules:
{"molecule": "CCCCCC(CCC1C(O)CC2Cc3c(cccc3OCC(=O)O)CC21)OP(=O)(O)O (stereo not drawn) [Prodrug VI]", "readout_value": 5}
{"molecule": "CCCCC[C@H](O)CC[C@@H]1[C@H]2Cc3cccc(OCC(=O)OCC)c3C[C@H]2C[C@H]1O [Treprostinil ethyl ester, reference compound]", "readout_value": 535}
{"molecule": "CCCCCC(CCC1C(O)CC2Cc3c(cccc3OCC(=O)O)CC21)OC(=O)C(C)C (stereo not drawn) [Prodrug LXVII]", "readout_value": 148}
{"molecule": "CCCCCC(CCC1C(O)CC2Cc3c(cccc3OCC(=O)O)CC21)OC(C)=O (stereo not drawn) [Prodrug XLIII]", "readout_value": 632}
{"molecule": "CCCCCC(CCC1C(O)CC2Cc3c(cccc3OCC(=O)O)CC21)OCOC(=O)C(C)(C)C (stereo not drawn) [Prodrug LII]", "readout_value": 527}
{"molecule": "CCCCCC(CCC1C(O)CC2Cc3c(cccc3OCC(=O)O)CC21)OC(=O)CC (stereo not drawn) [Prodrug LV]", "readout_value": 54}

Note: attention shifts to another entry.
Req: IP Relative to Tre lookup needed for CCCCCC(CCC1C(O)CC2Cc3c(cccc3OCC(=O)O)CC21)OC(=O)COc1ccccc1 (stereo not drawn) [Prodrug LXV] , thanks.
Resp: 599

###

Each entry below carries its recorded Trep Concentration (μM) 30 min.
assay_method_text: Stability in cryopreserved hepatocytes, human
Procedure: Mixed-gender human cryopreserved hepatocytes, male Sprague-Dawley rat cryopreserved hepatocytes, and male Beagle dog cryopreserved hepatocytes were purchased from XenoTech. […] An aliquot of the supernatant was then diluted with water and analyzed by LC-MS/MS against calibration standards prepared in a matched matrix. […] All test article samples were analyzed for the dosed prodrugs as well as the drug, treprostinil. […]
Numbers only; they are read as µM.

Below: 4 molecules and their reported Trep Concentration (μM) 30 min.
{"molecule": "CCCCCC(CCC1C(O)CC2Cc3c(cccc3OCC(=O)O)CC21)OC(=O)CC (centres unmarked) [LV]", "Trep Concentration (μM) 30 min [µM]": 0.654}
{"molecule": "CCCCCC(CCC1C(O)CC2Cc3c(cccc3OCC(=O)O)CC21)OC(C)=O (centres unmarked) [XLIII]", "Trep Concentration (μM) 30 min [µM]": 0.623}
{"molecule": "CCCCCC(CCC1C(O)CC2Cc3c(cccc3OCC(=O)O)CC21)OC(=O)c1ccc(C)cc1 (centres unmarked) [XLVIII]", "Trep Concentration (μM) 30 min [µM]": 0.304}
{"molecule": "CCCCCC(CCC1C(O)CC2Cc3c(cccc3OCC(=O)O)CC21)OC(=O)CO (centres unmarked) [XLIV]", "Trep Concentration (μM) 30 min [µM]": 0.534}

Let us move to another entry and its Trep Concentration (μM) 30 min.
Req: // Trep Concentration (μM) 30 min lookup, key: CCCCCC(CCC1C(O)CC2Cc3c(cccc3OCC(=O)O)CC21)OCc1oc(=O)oc1C (centres unmarked) [LI]
Resp: 0.626

###

molecules and their reported Trep Concentration 60 min
assay_method_text: Stability in liver microsomes, human
Give the quantity in µM, number only.

Recorded Trep Concentration 60 min, per entry:
{"molecule": "CCCCC[C@H]1CC[C@@H]2[C@H]3Cc4cccc(OCC(=O)O)c4C[C@H]3C[C@H]2OC(=O)O1 [XXIV]", "units_of_measure": "µM", "readout_value": 0.23}
{"molecule": "CCCCCC(O)CCC1C(OC(=O)CCC(=O)O)CC2Cc3c(cccc3OCC(=O)O)CC21 (centres unmarked) [XXII]", "units_of_measure": "µM", "readout_value": 0}
{"molecule": "CCCCCC(CCC1C(O)CC2Cc3c(cccc3OCC(=O)O)CC21)OC(=O)COc1ccc(OC(F)(F)F)cc1 (centres unmarked) [LXIV]", "units_of_measure": "µM", "readout_value": 0.351}
{"molecule": "CCCCCC(CCC1C(O)CC2Cc3c(cccc3OCC(=O)O)CC21)OC(=O)CC (centres unmarked) [LV]", "units_of_measure": "µM", "readout_value": 0.389}
{"molecule": "CCCCC[C@@H](CC[C@@H]1[C@H]2Cc3cccc(OCC(=O)O)c3C[C@H]2C[C@H]1O)OC(=O)[C@@H](N)C(C)C [XXIX]", "units_of_measure": "µM", "readout_value": 0.0265}
{"molecule": "CCCCCC(CCC1C(O)CC2Cc3c(cccc3OCC(=O)O)CC21)OC(C)=O (centres unmarked) [XLIII]", "units_of_measure": "µM", "readout_value": 0.341}
{"molecule": "CCCCCC(CCC1C(O)CC2Cc3c(cccc3OCC(=O)O)CC21)OC(=O)c1ccc(O)c(O)c1 (centres unmarked) [LXVI]", "units_of_measure": "µM", "readout_value": 0.0141}

Proceed to the following item.
Req: Which Trep Concentration 60 min is listed for CCCCCC(CCC1C(O)CC2Cc3c(cccc3OCC(=O)O)CC21)OC(N)=O (centres unmarked) [XLII] ?
Resp: 0.219
